Biological target: PDGFR (Homo sapiens)
Construct: SUGEN, Inc; host or cells: NIH 3T3 cell lysate; receptor captured on plate with monoclonal anti-PDGFR antibody 28D4C10
Sequence (P09619 33-1106, species assumed): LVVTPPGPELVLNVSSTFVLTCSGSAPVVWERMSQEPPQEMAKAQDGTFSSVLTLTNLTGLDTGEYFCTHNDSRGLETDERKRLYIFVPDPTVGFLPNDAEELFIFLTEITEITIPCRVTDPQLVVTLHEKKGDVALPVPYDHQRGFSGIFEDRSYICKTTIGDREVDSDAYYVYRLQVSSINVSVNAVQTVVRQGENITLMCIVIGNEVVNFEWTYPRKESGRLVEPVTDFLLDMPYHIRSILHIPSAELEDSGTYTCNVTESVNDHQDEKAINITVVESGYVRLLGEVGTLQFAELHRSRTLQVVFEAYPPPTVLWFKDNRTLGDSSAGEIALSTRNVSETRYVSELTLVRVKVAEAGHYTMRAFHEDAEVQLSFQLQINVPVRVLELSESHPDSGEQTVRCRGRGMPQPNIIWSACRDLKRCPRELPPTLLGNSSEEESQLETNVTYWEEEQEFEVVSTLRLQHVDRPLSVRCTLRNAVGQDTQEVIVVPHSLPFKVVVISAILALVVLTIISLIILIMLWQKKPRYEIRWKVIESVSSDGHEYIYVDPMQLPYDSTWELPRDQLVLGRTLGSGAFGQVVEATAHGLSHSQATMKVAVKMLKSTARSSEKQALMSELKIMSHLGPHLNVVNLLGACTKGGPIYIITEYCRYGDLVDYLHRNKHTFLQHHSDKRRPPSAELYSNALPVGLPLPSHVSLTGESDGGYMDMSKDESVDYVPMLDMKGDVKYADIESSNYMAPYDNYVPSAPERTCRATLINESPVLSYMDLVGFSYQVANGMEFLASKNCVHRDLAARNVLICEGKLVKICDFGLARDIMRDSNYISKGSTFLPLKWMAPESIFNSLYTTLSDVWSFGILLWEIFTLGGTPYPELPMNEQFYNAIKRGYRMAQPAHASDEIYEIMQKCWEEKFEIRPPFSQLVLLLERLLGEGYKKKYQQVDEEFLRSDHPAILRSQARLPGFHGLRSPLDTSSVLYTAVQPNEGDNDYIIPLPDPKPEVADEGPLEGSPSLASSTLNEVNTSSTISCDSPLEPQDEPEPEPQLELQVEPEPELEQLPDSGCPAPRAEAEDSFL
Assay: PDGFR bioassay (ELISA, in vitro kinase activity)
Assay type: biochemical
Conditions: PDGFR-β expressing NIH 3T3 cell lysate; read-out: IC50 (μM) PDGF-R
Decide using IC50 alone. Strictly below 0.6 µM: condition met. Equal to or above 0.6 µM: condition not met.

>  <COMPOUND>
O=C(CN1CCC(N2CCCC2)CC1)Nc1cccc(Nc2ncc(-c3ccsc3)cn2)c1 [Example 55]

>  <LABEL>
condition met

$$$$
>  <COMPOUND>
O=C(CN1CCC(O)CC1)Nc1ccc(Nc2ncc(-c3ccsc3)cn2)cc1 [Example 28]

>  <LABEL>
condition met

$$$$
>  <COMPOUND>
COc1ccc(Nc2ncc(-c3ccsc3)cn2)cc1 [Example 5]

>  <LABEL>
condition met

$$$$
>  <COMPOUND>
O=C(CNCCN1CCOCC1)Nc1cccc(Nc2ncc(-c3ccsc3)cn2)c1 [Example 56]

>  <LABEL>
condition met

$$$$
>  <COMPOUND>
Nc1cccc(Nc2ncc(-c3ccsc3)cn2)c1 [Example 6]

>  <LABEL>
condition met

$$$$
>  <COMPOUND>
O=C(NCCN1CCOCC1)Nc1ccc(Nc2ncc(-c3ccsc3)cn2)cc1 [Example 31]

>  <LABEL>
condition not met

$$$$
>  <COMPOUND>
Nc1ccc(Nc2ncc(-c3ccsc3)cn2)cc1 [Example 8]

>  <LABEL>
condition met

$$$$
>  <COMPOUND>
O=C(CN1CCOCC1)Nc1cccc(Nc2cnc(-c3ccsc3)cn2)c1 [Example 42]

>  <LABEL>
condition not met

$$$$
